assay: Clearance in dog at 0.6 mg/kg; type: ADME, organism-based, Canis lupus familiaris; design: dose 0.6 mg/kg; settings: in vivo
// classify: if (clearance < 20 mL/min/kg) Criterion met else Criterion not met

Take a look at these entries with their results.
Cc1ccc([C@H](C(=O)N(C)C)N2C(=O)[C@@H](C3Cc4ccccc4C3)NC(=O)[C@H]2CC(C)C)cn1    Criterion met
COc1ccc([C@H](C(=O)N(C)C)N2C(=O)[C@@H](C3Cc4ccccc4C3)NC(=O)[C@H]2CC(C)C)cn1    Criterion met
CC[C@H](C)[C@@H]1C(=O)N[C@H](C2Cc3ccccc3C2)C(=O)N1[C@@H](C(=O)N(C)C)c1cnc(C)cc1C    Criterion met
CCC(CC)[C@@H]1C(=O)N[C@H](C2Cc3ccccc3C2)C(=O)N1[C@@H](C(=O)NC)c1ccc(C)nc1    Criterion not met
Cc1ccc([C@H](C(=O)N2CCOCC2)N2C(=O)[C@@H](C3Cc4ccccc4C3)NC(=O)[C@H]2CC(C)C)cn1    Criterion met
CC[C@H](C)[C@@H]1C(=O)N[C@H](C2Cc3ccccc3C2)C(=O)N1[C@@H](C(=O)N1CCOCC1)c1ccc(C)nc1C    Criterion met
CC[C@H](C)[C@@H]1C(=O)N[C@H](C2Cc3ccccc3C2)C(=O)N1[C@@H](C(=O)NC)c1ccc(C)nc1C    Criterion not met
Cc1ccc([C@H](C(=O)N2CCOCC2)N2C(=O)[C@@H](C3Cc4ccccc4C3)NC(=O)[C@H]2CC(C)(C)C)cn1    Criterion not met

-- ask is_below(clearance, 20 mL/min/kg) for `CC[C@H](C)[C@@H]1C(=O)N[C@H](C2Cc3ccccc3C2)C(=O)N1[C@@H](C(=O)N(C)C)c1ccc(C)nc1` ?
-- reply Criterion met

-- ask is_below(clearance, 20 mL/min/kg) for `CC[C@H](C)[C@@H]1C(=O)N[C@H](C2Cc3ccccc3C2)C(=O)N1[C@@H](C(=O)N(C)C)c1ccc(C)nc1C` ?
-- reply Criterion met

meta.source: ChEMBL document CHEMBL2034824
